# System: ducksalad (Heteranthera limosa)
# protocol_notes: Test B flooded paddy test
# Assay type: in vivo
# experimental_parameters: Heteranthera limosa, Flood, 250 g ai/ha; scale of 0 to 100 where 0 is no effect and 100 is complete control; read-out: Ducksalad plant response rating
Labelling: pest or weed control at 250 g/ha reported below 80% becomes class 1; at or above becomes class 0.

Before answering, review these 5 worked examples.
> print(dat)
                                   molecule      cat
1  CN1CC(c2cccc(OC/C=C/Cl)c2)C(C(=O)Nc2cccc(F)c2F)C1=O (stereo not drawn) [Compound 772]  class 1
2  Cc1ccc([C@H]2CNC(=S)[C@@H]2C(=O)Nc2ccccc2F)cc1 (racemic) [Compound 945]  class 0
3  CN1C[C@H](c2cc(F)cc(F)c2)[C@@H](C(=O)Nc2cc(O)ccc2F)C1=O [Compound 992]  class 1
4  C/C=C/C1CNC(=O)C1C(=O)Nc1ccccc1F (stereo not drawn) [Compound 792]  class 1
5  CN1C[C@H](c2cccc(OC(F)(F)C(F)F)c2)[C@@H](C(=O)Nc2ccccc2[S+](C)[O-])C1=O (stereo partly drawn) [Compound 863]  class 1

State whether 80% exceeds pest or weed control at 250 g/ha recorded for Cc1ccc([C@H]2CN(C)C(=O)[C@@H]2C(=O)Nc2cccc(F)c2C)cc1C [Compound 732] . class 0

Is it true that pest or weed control at 250 g/ha reported for O=C1NC[C@H](c2ccc3c(c2)OCO3)[C@H]1C(=O)Nc1ccccc1F [Compound 767] is less than 80%? class 0

Does the reported pest or weed control at 250 g/ha of CN1C[C@H](c2cccc(C3CC3)c2)[C@@H](C(=O)Nc2cccc(F)c2F)C1=O [Compound 816] stay below 80%? class 1

pest or weed control at 250 g/ha strictly < 80% for this molecule? CC(C)COc1cccc([C@H]2CNC(=O)[C@@H]2C(=O)Nc2cccc(F)c2F)c1 [Compound 965] class 0

Is pest or weed control at 250 g/ha of COc1c(F)ccc([C@H]2CN(C)C(=O)[C@@H]2C(=O)Nc2ccccc2C(F)(F)F)c1Cl [Compound 896] strictly below 80%? class 1

Report whether reported pest or weed control at 250 g/ha is lower than 80% (strictly) for CCc1ccc([C@H]2CNC(=S)[C@@H]2C(=O)Nc2cccc(F)c2C)cc1 [Compound 761] class 0

Lab log: compare recorded pest or weed control at 250 g/ha with 80%; is it strictly lower for CN1CC[C@H](c2cccc(Cl)c2)[C@@H](C(=O)Nc2ccccc2S(C)(=O)=O)C1=O [Compound 923] ? class 1

Hello, I'm reviewing records and need to know if pest or weed control at 250 g/ha of O=C1NC[C@H](c2cscn2)[C@H]1C(=O)Nc1ccccc1F [Compound 752] is below 80%. Could you check? class 1

Field: below-cutoff. Rule: recorded pest or weed control at 250 g/ha strictly less than 80%. Subject: Cc1c(F)ccc([C@H]2CN(C)C(=O)[C@@H]2C(=O)Nc2cccc(F)c2F)c1F [Compound 834] class 1

Is 80% strictly greater than the molecule's reported pest or weed control at 250 g/ha? molecule: CN1C[C@H](c2cccc(F)c2)[C@@H](C(=O)Nc2ccccc2S(C)(=O)=O)C1=O [Compound 824] class 0

Dear reviewer, please state whether CN1C[C@H](c2cc(F)c(C(F)(F)F)c(F)c2)[C@@H](C(=O)Nc2ccccc2F)C1=O [Compound 899] has pest or weed control at 250 g/ha strictly beneath 80%. class 1

Problem: For the molecule CN1C[C@H](c2cccc(OC(F)(F)C(F)F)c2)[C@@H](C(=O)Nc2ccccc2S(C)(=O)=O)C1=O [Compound 864] , is pest or weed control at 250 g/ha under 80%? class 0

Does this molecule meet the criterion pest or weed control at 250 g/ha < 80%? O=C(Nc1cccc(Cl)c1F)[C@H]1C(=O)N(C2CC2)CC[C@@H]1c1cccc(C(F)(F)F)c1 [Compound 926] class 1
